System: large crabgrass (Digitaria sanguinalis)
Assay: Test C pre-/postemergence: large crabgrass
Format: in vivo
Conditions: Postemergence, 62 g ai/ha; scale 0 to 100 (0 no effect, 100 complete control)
OBSERVABLE: Plant response rating, Crabgrass, Large
Write the number on its own, no unit after it.

// worked examples, Plant response rating, Crabgrass, Large included
# COMPOUND_STRING, Plant response rating, Crabgrass, Large
records = [
    ("Cc1nn(-c2ccc(C(F)(F)F)c(F)c2)nc1Oc1ccnc(C(F)(F)F)c1", 60),
    ("Cc1nn(-c2ccc(C(F)(F)F)cn2)nc1Oc1ccnc(C(F)(F)F)c1", 15),
    ("Cc1nn(-c2ccnc(Cl)c2)nc1Cc1ccnc(C(F)(F)F)c1", 55),
]

Quick one: Plant response rating, Crabgrass, Large of `COc1nn(-c2cccc(F)c2)nc1Cc1ccnc(C(F)(F)F)c1` ? 45

Please do the same for `FC(F)(F)COc1nn(-c2ccc(C(F)(F)F)cc2)nc1Cc1ccnc(C(F)(F)F)c1` as well. 45

Please do the same for `Fc1ccc(-n2nc(Cc3ccnc(C(F)(F)F)c3)c(OC(F)F)n2)cc1` as well. 20

Please do the same for `CCCc1nn(-c2ccc(F)c(F)c2)nc1Oc1ccnc(C(F)(F)F)c1` as well. 55

Please do the same for `COc1nn(-c2ccc(C(F)(F)F)cc2)nc1Cc1ccnc(C(F)F)c1` as well. 50

* * *

Parameter: Wheat plant response rating. Scope: all listed entries.
System: wheat (Triticum aestivum)
Assay: Test A pre-/postemergence: wheat
Format: in vivo
Conditions: Postemergence, 125 g ai/ha; 0 to 100 scale, 0 is no effect, 100 is complete control
Write the number on its own, no unit after it.

// worked examples, Wheat plant response rating included
# COMPOUND, Wheat plant response rating
rows = [
    ("Cc1nn(-c2ccc(Cl)nc2)nc1C(=O)c1cccc(C(F)(F)F)c1 [Compound 72]", 0),
    ("Cc1cnccc1Oc1nn(-c2ccc(F)cc2)nc1C [Compound 87]", 0),
    ("Cc1nn(-c2ccc(C(F)(F)F)cc2)nc1Oc1cncc(C(F)(F)F)c1 [Compound 37]", 0),
    ("FC(F)Oc1nn(-c2ccc(C(F)(F)F)cc2)nc1Cc1ccnc(C(F)(F)F)c1 [Compound 26]", 60),
]

Quick one: Wheat plant response rating of Cc1nn(-c2ccc(C(F)(F)F)cc2)nc1Cn1c(Cl)nc(C(F)(F)F)c1Cl [Compound 11] ? 0

* * *

Tested on: velvetleaf (Abutilon theophrasti)
Test: Test A pre-/postemergence: velvetleaf
Format: in vivo
Details: Preemergence, 1000 g ai/ha; 0 to 100 scale, 0 is no effect, 100 is complete control
Parameter: Velvetleaf plant response rating. Scope: all listed entries.
Write the number on its own, no unit after it.

// worked examples, Velvetleaf plant response rating included
# COMPOUND_STRING, EXPERIMENTAL_SYSTEM, Velvetleaf plant response rating
measured = [
    ("Cc1nn(-c2ccc(C(F)(F)F)cc2)nc1Cn1ccc(C(F)(F)F)n1", "velvetleaf (Abutilon theophrasti)", 30),
    ("Cc1nn(-c2ccc(C(F)(F)F)cn2)nc1Cc1cccc(C(F)(F)F)c1", "velvetleaf (Abutilon theophrasti)", 0),
    ("FC(F)(F)c1ccc(-n2nc(Br)c(Cc3cccc(C(F)(F)F)c3)n2)cc1", "velvetleaf (Abutilon theophrasti)", 10),
]

In the following, a different compound is considered.
Quick one: Velvetleaf plant response rating of `Cc1nn(-c2ccc(F)cc2)nc1Cn1ccc(C(F)(F)F)n1` ? 40

* * *

System: nutsedge, yellow (yellow nutsedge, Cyperus esculentus)
Assay: Test C pre-/postemergence: nutsedge, yellow
Type: in vivo
Conditions: Preemergence, 62 g ai/ha; scale of 0 to 100, 0 is no effect, 100 is complete control
OBSERVABLE: Plant response rating, Nutsedge, Yellow
Write the number on its own, no unit after it.

// worked examples, Plant response rating, Nutsedge, Yellow included
# MOLECULE, OBSERVABLE, VALUE_MEASURED
measured = [
    ("CCCc1nn(-c2ccc(C(F)(F)F)cc2)nc1Oc1ccnc(C(F)(F)F)c1 [Compound 170]", "Plant response rating, Nutsedge, Yellow", 5),
    ("Cc1nn(-c2ccc(C(F)(F)F)cc2)nc1Oc1ccnc(C(F)(F)F)c1 [Compound 120]", "Plant response rating, Nutsedge, Yellow", 0),
    ("Cc1nn(-c2ccc(F)c(C(F)(F)F)c2)nc1Cc1ccnc(C(F)(F)F)c1 [Compound 156]", "Plant response rating, Nutsedge, Yellow", 0),
    ("CCc1nn(-c2ccc(F)c(F)c2)nc1Oc1ccnc(C(F)(F)F)c1 [Compound 171]", "Plant response rating, Nutsedge, Yellow", 0),
    ("FC(F)Oc1nn(-c2ccc(C(F)(F)F)cc2)nc1Cc1ccnc(C(F)(F)F)c1 [Compound 26]", "Plant response rating, Nutsedge, Yellow", 0),
]

Quick one: Plant response rating, Nutsedge, Yellow of CCOc1nn(-c2ccc(Cl)cc2)nc1Cc1ccnc(C(F)(F)F)c1 [Compound 188] ? 5

Please do the same for COc1nn(-c2ccc(C(F)(F)F)cc2)nc1Cc1ccnc(C(F)(F)F)c1 [Compound 15] as well. 0

* * *

Test system: Barnyardgrass
Test: Test C postemergence: barnyardgrass
Type: in vivo, Echinochloa crus-galli
Conditions: 31 g ai/ha, scale 0 to 100 (0 no effect, 100 complete control)
Parameter: Plant response rating, Barnyardgrass. Scope: all listed entries.
Write the number on its own, no unit after it.

// worked examples, Plant response rating, Barnyardgrass included
# COMPOUND_STRING, VALUE_MEASURED
measured = [
    ("Cc1nn(-c2ccc(F)c(C(F)(F)F)c2)nc1Cc1ccnc(C(F)(F)F)c1", 20),
    ("CCc1nn(-c2ccc(F)c(F)c2)nc1Oc1ccnc(C(F)(F)F)c1", 10),
    ("CCCc1nn(-c2ccc(C(F)(F)F)cc2)nc1Oc1ccnc(C(F)(F)F)c1", 20),
    ("CCc1nn(-c2ccc(C(F)(F)F)cc2)nc1Oc1ccnc(C(F)(F)F)c1", 15),
    ("CCCc1nn(-c2ccc(F)cc2)nc1Oc1ccnc(C(F)(F)F)c1", 40),
    ("CCc1nn(-c2ccc(C(F)(F)F)cc2)nc1Cc1ccnc(C(F)(F)F)c1", 25),
]

In the following, a different compound is considered.
Quick one: Plant response rating, Barnyardgrass of `FCc1nn(-c2ccc(F)cc2)nc1Oc1ccnc(C(F)(F)F)c1` ? 20

* * *

Tested on: Waterhemp
Experiment: Test C postemergence: waterhemp
Type: in vivo
Conditions: 62 g ai/ha, scale 0 to 100 (0 no effect, 100 complete control)
Parameter: Plant response rating, Waterhemp. Scope: all listed entries.

// worked examples, Plant response rating, Waterhemp included
# COMPOUND_STRING, EXPERIMENTAL_SYSTEM, Plant response rating, Waterhemp
measured = [
    ("CCOc1nn(-c2ccc(Cl)cc2)nc1Cc1ccnc(C(F)(F)F)c1", "Waterhemp", 100),
    ("FCc1nn(-c2ccc(F)cc2)nc1Oc1ccnc(C(F)(F)F)c1", "Waterhemp", 98),
    ("CCc1nn(-c2ccc(C(F)(F)F)cc2)nc1Cc1ccnc(C(F)(F)F)c1", "Waterhemp", 98),
]

In the following, a different compound is considered.
Kindly state the measured Plant response rating, Waterhemp obtained for `CCc1nn(-c2ccc(F)c(F)c2)nc1Oc1ccnc(C(F)(F)F)c1` with Waterhemp. 75

* * *

System: ragweed (common ragweed, Ambrosia elation)
Experiment: Test C pre-/postemergence: ragweed
Assay type: in vivo
Conditions: Postemergence, 250 g ai/ha; scale 0 to 100 (0 no effect, 100 complete control)
OBSERVABLE: Plant response rating, Ragweed
Write the number on its own, no unit after it.

// worked examples, Plant response rating, Ragweed included
# COMPOUND, EXPERIMENTAL_SYSTEM, Plant response rating, Ragweed
records = [
    ("CCOc1nn(-c2ccc(Cl)cc2)nc1Cc1ccnc(C(F)(F)F)c1 [Compound 188]", "ragweed (common ragweed, Ambrosia elation)", 85),
    ("CCCc1nn(-c2ccc(F)c(F)c2)nc1Oc1ccnc(C(F)(F)F)c1 [Compound 172]", "ragweed (common ragweed, Ambrosia elation)", 80),
    ("CCCc1nn(-c2ccc(F)cc2)nc1Oc1ccnc(C(F)(F)F)c1 [Compound 168]", "ragweed (common ragweed, Ambrosia elation)", 80),
    ("CCCc1nn(-c2ccc(F)cc2F)nc1Oc1ccnc(C(F)(F)F)c1 [Compound 179]", "ragweed (common ragweed, Ambrosia elation)", 75),
]

In the following, a different compound is considered.
Quick one: Plant response rating, Ragweed of CCCc1nn(-c2ccc(C(F)(F)F)cc2)nc1Oc1ccnc(C(F)(F)F)c1 [Compound 170] ? 90

* * *

System: ryegrass, Italian (Italian ryegrass, Lolium multiflorum)
Experiment: Test C pre-/postemergence: ryegrass, Italian
Type: in vivo
Conditions: Postemergence, 250 g ai/ha; scale 0 to 100 (0 no effect, 100 complete control)
Parameter: Plant response rating, Ryegrass, Italian. Scope: all listed entries.
Write the number on its own, no unit after it.

// worked examples, Plant response rating, Ryegrass, Italian included
# COMPOUND_STRING, Plant response rating, Ryegrass, Italian
rows = [
    ("CCc1nn(-c2ccc(C(F)(F)F)cc2)nc1Oc1ccnc(C(F)(F)F)c1", 40),
    ("CCCc1nn(-c2ccc(C(F)(F)F)cc2)nc1Oc1ccnc(C(F)(F)F)c1", 70),
    ("CCCc1nn(-c2ccc(F)cc2)nc1Oc1ccnc(C(F)(F)F)c1", 80),
]

Quick one: Plant response rating, Ryegrass, Italian of `CCCc1nn(-c2ccc(F)cc2F)nc1Oc1ccnc(C(F)(F)F)c1` ? 40

Please do the same for `CCOc1nn(-c2ccc(F)cc2)nc1Cc1ccnc(C(F)(F)F)c1` as well. 85

Please do the same for `CCOc1nn(-c2ccc(Cl)cc2)nc1Cc1ccnc(C(F)(F)F)c1` as well. 90
